# maps each entry to its Ki
target: Autotaxin (Homo sapiens, UniProt Q13822)

Answered cases to consult:
* COC(=O)CNCc1ccc(Br)cn1 | < 5 µM
* O=C(Cc1ccc(-c2ccc3[nH]ccc3c2)cc1)OCc1ccccc1 | 1.1 µM
* O=C(O)Cc1ccc(-c2ccc(N(C(=O)OCc3ccccc3)C3CCOCC3)cc2)cc1 | > 30 µM
* O=C1CN(Cc2ccc(Br)cc2)C(=O)N1C1CCCCC1 | < 5 µM
* O=C1CN(Cc2ccc(-c3ccc(C4(C(=O)O)CC4)cc3)cc2)C(=O)N1c1ccccc1 | > 30 µM
* Brc1ccc(NC2CCOCC2)cc1 | < 5 µM
* CC(C)N1C(=O)CN(Cc2ccc(-c3ccc(CC(=O)O)cc3)cn2)C1=O | 4 µM
* O=C(O)Cc1ccc(-c2cccc(NC(=O)OCc3ccccc3)c2)cc1 | 4.5 µM
* O=C(Nc1cccc(-c2ccccc2)c1)OCc1ccccc1 | > 30 µM
* O=C(O)Cc1cccc(-c2cccc(NC(=O)OCc3ccccc3)c2)c1 | 3.5 µM

Ask | Ki for "O=C(O)Cc1ccc(-c2ccc(N(C(=O)OCc3ccccc3)C3CCCCC3)cc2)cc1" ?
Reply | 2 µM

Ask | Query "CC(C)N1C(=O)CN(Cc2ccc(Br)cn2)C1=O" next
Reply | < 5 µM

Ask | Query "COC(=O)CNCc1ccc(Br)cc1" next
Reply | < 5 µM

----------
experiment: Permeability of compound across artificial membrane after 3 hrs by LC-MS analysis; assay type: ADME; details: PAMPA; read-out: permeability
Observation Type: Papp at 3 h (×10⁻⁶ cm/s)

- O=C1CN(Cc2ccc(-c3ccccc3)cc2)C(=O)N1c1ccccc1: 54
- O=C(Cc1ccc(-c2ccc3cc[nH]c3c2)cc1)OCc1ccccc1: 51
- O=C(Nc1cccc(-c2ccccc2)c1)OCc1ccccc1: 45

----------
experiment: Permeability of compound across artificial membrane after 3 hrs by LC-MS analysis; assay type: ADME; details: PAMPA; read-out: permeability
Observation Type: Papp at 3 h (×10⁻⁶ cm/s)

Answered cases to consult:
* CC(C)N1C(=O)CN(Cc2ccc(-c3ccc(CC(=O)O)cc3)cc2)C1=O | 0.3
* O=C(O)Cc1ccc(-c2cccc(NC(=O)OCc3ccccc3)c2)cc1 | 7.3
* O=C(O)Cc1ccccc1-c1cccc(NC(=O)OCc2ccccc2)c1 | 14
* O=C(O)Cc1ccc(-c2ccc(CN3CC(=O)N(c4ccccc4)C3=O)cc2)cc1 | 0.3
* O=C1CN(Cc2ccc(-c3ccc(C4(C(=O)O)CC4)cc3)cc2)C(=O)N1c1ccccc1 | 1.6

1: O=C(Cc1ccc(-c2ccc3[nH]ccc3c2)cc1)OCc1ccccc1
2: O=C(O)Cc1cccc(-c2cccc(NC(=O)OCc3ccccc3)c2)c1
Ask | Please choose the item with the lower Papp at 3 h value from this pair: 1 and 2 The response must carry the label of the picked entry.
Reply | 2

----------
assay: Lipophilicity, log D of compound at pH 7.4 by RP-HPLC analysis; type: physicochemical; conditions: buffer
Observation Type: logD

• O=C(O)Cc1ccc(-c2ccc(N(C(=O)OCc3ccccc3)C3CCCCC3)cc2)cc1 = 4.92
• CC(C)N1C(=O)CN(Cc2ccc(-c3ccc(CC(=O)O)cc3)cn2)C1=O = -1.38
• CC(C)N1C(=O)CN(Cc2ccc(-c3ccc(CC(=O)O)cc3)cc2)C1=O = 1.1
• O=C(O)Cc1ccc(-c2ccc(N(C(=O)OCc3ccccc3)C3CCOCC3)cc2)cc1 = 3.13
• O=C(O)Cc1ccc(-c2cccc(NC(=O)OCc3ccccc3)c2)cc1 = 3.19
• O=C(O)Cc1cccc(-c2cccc(NC(=O)OCc3ccccc3)c2)c1 = 3.1
• O=C(O)Cc1ccc(-c2ccc(CN3CC(=O)N(c4ccccc4)C3=O)cc2)cc1 = 2.18
• O=C1CN(Cc2ccc(-c3ccccc3)cc2)C(=O)N1c1ccccc1 = 6.24

I: O=C(Cc1ccc(-c2ccc3cc[nH]c3c2)cc1)OCc1ccccc1
II: O=C(O)Cc1ccc(-c2ccc(CN3CC(=O)N(C4CCCCC4)C3=O)cc2)cc1
Ask | Please choose the item with the lower logD value from this pair: I and II The response must carry the label of the picked entry.
Reply | II
(II: 1.12, I: 7.43)

a: O=C(O)Cc1ccc(-c2ccc(CN3CC(=O)N(C4CCCCC4)C3=O)nc2)cc1
b: O=C1CN(Cc2ccc(-c3ccc(C4(C(=O)O)CC4)cc3)cc2)C(=O)N1c1ccccc1
c: O=C(Nc1cccc(-c2ccccc2)c1)OCc1ccccc1
d: O=C(O)Cc1ccccc1-c1cccc(NC(=O)OCc2ccccc2)c1
Ask | Parameters: sort_field (logD), sort_dir (desc). Please list the labels in the order you were asked to rank them.
Reply | c, d, b, a
(c: 7.52, d: 3.06, b: 1.5, a: -0.35)

Data origin, for the record: ChEMBL document CHEMBL3739319
